The reported measurements were obtained from ChEMBL document CHEMBL1649447.

Tested on: Plasmodium falciparum
Experiment: Antimicrobial activity against Plasmodium falciparum 3D7 by DAPI growth inhibition assay
Format: functional, organism-based
readout-name: IC50 (nM)
Note: unit nM is implicit; provide only the numeric part.

QUERY: # lookup: IC50 of CCN(CC)Cc1cc(Nc2ccnc3cc(Cl)ccc23)ccc1O.Cl
RESULT: 6.8
